meta.source: patent US9675614B2

target: PRMT5/MEP50 (Homo sapiens (Human), UniProt O14744); assay: PRMT5 Biochemical Assay (PRMT5/MEP50 enzyme assay on peptide substrate, 3H-SAM Flashplate); settings: PRMT5/MEP50 biochemical assay; read-out: Biochemical IC50
Sequence (O14744 other isoform, or with tags, fused parts or gaps): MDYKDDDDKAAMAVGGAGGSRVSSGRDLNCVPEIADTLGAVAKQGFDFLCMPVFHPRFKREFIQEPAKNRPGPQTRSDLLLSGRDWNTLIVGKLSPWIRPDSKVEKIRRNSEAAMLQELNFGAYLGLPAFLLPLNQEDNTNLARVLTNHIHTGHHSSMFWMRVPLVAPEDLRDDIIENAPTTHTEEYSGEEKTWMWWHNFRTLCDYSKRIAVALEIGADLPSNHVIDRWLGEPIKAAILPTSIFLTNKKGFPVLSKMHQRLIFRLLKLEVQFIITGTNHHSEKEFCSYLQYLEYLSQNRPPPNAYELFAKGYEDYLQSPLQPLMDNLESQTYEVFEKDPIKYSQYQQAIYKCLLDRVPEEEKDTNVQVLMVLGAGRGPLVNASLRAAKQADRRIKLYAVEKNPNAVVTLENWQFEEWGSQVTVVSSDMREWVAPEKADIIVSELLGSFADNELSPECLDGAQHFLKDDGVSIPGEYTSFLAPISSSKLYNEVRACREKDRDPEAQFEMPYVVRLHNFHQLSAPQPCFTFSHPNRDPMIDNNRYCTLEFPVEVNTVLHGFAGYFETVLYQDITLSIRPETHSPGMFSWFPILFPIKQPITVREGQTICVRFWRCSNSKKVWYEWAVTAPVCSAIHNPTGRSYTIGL
Sequence (Q9BQA1 other isoform, or with tags, fused parts or gaps partner): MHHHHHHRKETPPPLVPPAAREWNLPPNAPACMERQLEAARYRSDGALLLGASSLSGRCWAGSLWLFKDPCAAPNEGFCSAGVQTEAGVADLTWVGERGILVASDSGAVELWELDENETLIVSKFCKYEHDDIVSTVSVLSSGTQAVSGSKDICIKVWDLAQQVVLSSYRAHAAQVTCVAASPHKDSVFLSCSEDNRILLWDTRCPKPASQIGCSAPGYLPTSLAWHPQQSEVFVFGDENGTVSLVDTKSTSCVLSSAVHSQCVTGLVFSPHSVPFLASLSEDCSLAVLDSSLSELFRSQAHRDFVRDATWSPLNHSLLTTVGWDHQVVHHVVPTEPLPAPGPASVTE
IC50 values, listed per item

[
  {
    "Compound": "NC(=O)CN1CCN(Cc2cccc(C(=O)NCC(O)CN3CCc4ccccc4C3)c2)CC1 (stereo not shown) [Compound 172]",
    "IC50": "< 100 nM"
  }
]

q: Quick check: IC50 on PRMT5/MEP50 (Homo sapiens (Human), UniProt O14744), item CN1CCC(Oc2ccc(C(=O)NCC(O)CN3CCc4ccccc4C3)cc2)CC1 (stereo not shown) [Compound 105] ?
a: < 100 nM

q: Another compound to look at: O=C(NCC(O)CN1CCc2ccccc2C1)c1ccc(-n2cncn2)cc1 (stereo not shown) [Compound 110]
a: < 100 nM

====

target: PRMT5/MEP50 (Homo sapiens (Human), UniProt O14744); experiment: PRMT5 Biochemical Assay (PRMT5/MEP50 enzyme assay on peptide substrate, 3H-SAM Flashplate); conditions: PRMT5/MEP50 biochemical assay; read-out: Biochemical IC50
IC50 values, listed per item

Examples from the recorded data:
[
  {
    "Molecule": "O=C(NC[C@H](O)CN1CCc2ccccc2C1)c1ccnc(NC2CCCC2)c1",
    "Result": "< 100 nM"
  },
  {
    "Molecule": "CNC(=O)CN1CCN(Cc2cccc(C(=O)NCC(O)CN3CCc4ccccc4C3)c2)CC1 (stereo not drawn)",
    "Result": "< 100 nM"
  },
  {
    "Molecule": "O=C(NCC(O)CN1CCc2ccccc2C1)c1ncc[nH]1 (stereo not drawn)",
    "Result": "101 to 1000 nM"
  }
]

From here, focus on the item given below.
q: Field request: IC50 | item: Cn1nc(NC2CCOCC2)cc1C(=O)NCC(O)CN1CCc2ccccc2C1 (stereo not drawn)
a: < 100 nM

====

target: PRMT5/MEP50 (Homo sapiens (Human)); assay: PRMT5 Biochemical Assay (PRMT5/MEP50 enzyme assay on peptide substrate, 3H-SAM Flashplate); details: PRMT5/MEP50 biochemical assay; read-out: Biochemical IC50
IC50 values, listed per item

Examples from the recorded data:
[
  {
    "Molecule": "O=C(NCC(O)CN1CCc2ccccc2C1)c1cccc(CNC2CCOCC2)c1 (centres unmarked)",
    "Measure Name": "IC50",
    "Result": "< 100 nM"
  },
  {
    "Molecule": "COCCCNc1cccc(C(=O)NCC(O)CN2CCc3ccccc3C2)c1 (centres unmarked) [Compound 69]",
    "Measure Name": "IC50",
    "Result": "101 to 1000 nM"
  },
  {
    "Molecule": "Cc1ccc2cc(C(=O)NC[C@H](O)CN3CCc4ccccc4C3)ccc2n1",
    "Measure Name": "IC50",
    "Result": "< 100 nM"
  },
  {
    "Molecule": "O=C1COc2cc(C(=O)NCC(O)CN3CCc4ccccc4C3)ccc2N1 (centres unmarked)",
    "Measure Name": "IC50",
    "Result": "101 to 1000 nM"
  },
  {
    "Molecule": "Cn1nc(C(=O)NCC(O)CN2CCc3ccccc3C2)cc1NC1CCOCC1 (centres unmarked)",
    "Measure Name": "IC50",
    "Result": "101 to 1000 nM"
  }
]

From here, focus on the item given below.
q: Field request: IC50 | item: COc1cc(CN2CCN(C)CC2)cc(C(=O)NCC(O)CN2CCc3ccccc3C2)c1 (centres unmarked)
a: < 100 nM
